Measured IC50 accompanies every entry in the list below.
Molecular target: Recombinant human HSD17B13 (Homo sapiens (Human))
Sequence (Q7Z5P4 20-300): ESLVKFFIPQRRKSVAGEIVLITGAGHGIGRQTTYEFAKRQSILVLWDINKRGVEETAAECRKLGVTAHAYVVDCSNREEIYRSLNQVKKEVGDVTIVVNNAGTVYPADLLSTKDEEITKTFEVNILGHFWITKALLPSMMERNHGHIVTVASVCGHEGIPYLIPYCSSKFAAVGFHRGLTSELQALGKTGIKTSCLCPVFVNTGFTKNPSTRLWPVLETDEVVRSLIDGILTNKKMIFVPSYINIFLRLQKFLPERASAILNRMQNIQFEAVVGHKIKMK
Assay: HSD17B13 rapid-fire mass spectrometry assay (RF/MS assay)
Details: inhibition of HSD17B13; LTB4 10 μM, NAD+ 0.5 mM, RT 3 h; IC50 ranges A-E
Procedure: HSD17B13 rapid-fire mass spectrometry assay (RF/MS assay). Recombinant human HSD17B13 was expressed and purified from sf9 cells at Charles River Labs (Saffron Walden, UK). […] Leukotriene B4 (335.3) and 12-oxoLeukotriene B4 (333.3) SRM transitions were optimized with Discovery Quant software and extracted ion counts for these analytes were determined. […] By using above method, the inhibition of HSD17B13 was evaluated for the compounds of Formula (I). […]

Illustrative cases are given below, each with its answer.
INPUT_SMILES | IC50
CS(=O)(=O)c1cc(C(=O)O)ccc1NS(=O)(=O)c1cnc(-c2ccc(F)cc2)s1 | 1 to 100 µM
CC[C@H]1CC[C@H](c2ccc(-c3cnc(S(=O)(=O)Nc4cc(F)c(C(=O)O)cc4OC)s3)cc2)CC1 | 0.1 to 0.5 µM
COc1cc(C(=O)O)ccc1NS(=O)(=O)N1Cc2nc(-c3ccc(C4CCCCC4)cc3)sc2C1 | 0.5 to 1 µM

Field: next compound
For Recombinant human HSD17B13 (Homo sapiens (Human)), give the measured IC50 of the entry COc1cc(C(=O)O)ccc1NS(=O)(=O)c1csc(N2CCN(c3ccc(Br)cc3)CC2)n1
1 to 100 µM
